The measurements presented in this section are drawn from the supplement of paper PMC10307832.

Tested on: LOU-NH91
Test: relative viability (nuclei count vs DMSO), 5 days (fraction); higher = more cells survive
Settings: first compound 0.1 µM
Classify: Criterion met when relative viability is strictly less than 0.7; Criterion not met when relative viability is not.

As a guide, the following entries are already answered.
Q) Bench note: check whether O=c1cc(N2CCOCC2)oc2c(-c3cccc4c3sc3ccccc34)cccc12 + COc1cccc2cc(-c3nc([C@H]4CC[C@H](C(=O)O)CC4)n4ncnc(N)c34)[nH]c12 [OSI-027] (partner 0.5 µM) shows relative viability below 0.7
A) Criterion not met

Q) Bench note: check whether O=c1cc(N2CCOCC2)oc2c(-c3cccc4c3sc3ccccc34)cccc12 + CC(=O)c1c(C)c2cnc(Nc3ccc(N4CCNCC4)cn3)nc2n(C2CCCC2)c1=O [Palbociclib] (partner 0.5 µM) shows relative viability below 0.7
A) Criterion met

Q) Bench note: check whether CCN(CC)CCCCNc1ncc2cc(-c3cc(OC)cc(OC)c3)c(NC(=O)NC(C)(C)C)nc2n1 + Cc1nc(NC(=O)N2CCC[C@H]2C(N)=O)sc1-c1ccnc(C(C)(C)C(F)(F)F)c1 [Alpelisib] (partner 2 µM) shows relative viability below 0.7
A) Criterion not met

Q) Bench note: check whether CCN(CC)CCCCNc1ncc2cc(-c3cc(OC)cc(OC)c3)c(NC(=O)NC(C)(C)C)nc2n1 + NC(=O)Nc1cc(-c2cccc(F)c2)sc1C(=O)N[C@H]1CCCNC1 [AZD7762] (partner 0.2 µM) shows relative viability below 0.7
A) Criterion not met

Pending compound:
Q) Bench note: check whether O=c1cc(N2CCOCC2)oc2c(-c3cccc4c3sc3ccccc34)cccc12 + C[C@]1(O)C[C@@H](c2nc(-c3ccc4ccc(-c5ccccc5)nc4c3)c3c(N)nccn32)C1 [Linsitinib] (partner 1 µM) shows relative viability below 0.7
A) Criterion not met

----------
System: A-427
Test: relative viability (nuclei count vs DMSO), 5 days (fraction); higher = more cells survive
Conditions: first compound 1 µM
Grouping by measured relative viability is done with the following cut points: band A (below 0.7), band B (0.7 to below 0.9), band C (0.9 or more)

As a guide, the following entries are already answered.
Q) // return the class label for O=c1cc(N2CCOCC2)oc2c(-c3cccc4c3sc3ccccc34)cccc12 + CC(=O)c1c(C)c2cnc(Nc3ccc(N4CCNCC4)cn3)nc2n(C2CCCC2)c1=O [Palbociclib] (partner 0.5 µM)
A) band A

Q) // return the class label for CCN(CC)CCCCNc1ncc2cc(-c3cc(OC)cc(OC)c3)c(NC(=O)NC(C)(C)C)nc2n1 + C[C@@H](Oc1cc(-c2cnn(C3CCNCC3)c2)cnc1N)c1c(Cl)ccc(F)c1Cl [Crizotinib] (partner 1 µM)
A) band B

Q) // return the class label for O=c1cc(N2CCOCC2)oc2c(-c3cccc4c3sc3ccccc34)cccc12 + COc1cc2c(Oc3ccc(NC(=O)C4(C(=O)Nc5ccc(F)cc5)CC4)cc3F)ccnc2cc1OCCCN1CCOCC1 [Foretinib] (partner 0.25 µM)
A) band C

Continuing:
Q) // return the class label for O=c1cc(N2CCOCC2)oc2c(-c3cccc4c3sc3ccccc34)cccc12 + O=C(c1cc(Cc2n[nH]c(=O)c3ccccc23)ccc1F)N1CCN(C(=O)C2CC2)CC1 [Olaparib] (partner 8 µM)
A) band B

Q) // return the class label for CCN(CC)CCCCNc1ncc2cc(-c3cc(OC)cc(OC)c3)c(NC(=O)NC(C)(C)C)nc2n1 + COc1cccc2cc(-c3nc([C@H]4CC[C@H](C(=O)O)CC4)n4ncnc(N)c34)[nH]c12 [OSI-027] (partner 0.5 µM)
A) band A

Q) // return the class label for O=c1cc(N2CCOCC2)oc2c(-c3cccc4c3sc3ccccc34)cccc12 + Nc1nc2[nH]cc(CCc3ccc(C(=O)N[C@@H](CCC(=O)O)C(=O)O)cc3)c2c(=O)[nH]1 [Pemetrexed] (partner 0.2 µM)
A) band C

Q) // return the class label for CCN(CC)CCCCNc1ncc2cc(-c3cc(OC)cc(OC)c3)c(NC(=O)NC(C)(C)C)nc2n1 + Cc1cc(Nc2cc(N3CCN(C)CC3)nc(Sc3ccc(NC(=O)C4CC4)cc3)n2)n[nH]1 [Tozasertib] (partner 0.1 µM)
A) band A

Q) // return the class label for CCN(CC)CCCCNc1ncc2cc(-c3cc(OC)cc(OC)c3)c(NC(=O)NC(C)(C)C)nc2n1 + Nc1nc2[nH]cc(CCc3ccc(C(=O)N[C@@H](CCC(=O)O)C(=O)O)cc3)c2c(=O)[nH]1 [Pemetrexed] (partner 0.2 µM)
A) band C

Q) // return the class label for O=c1cc(N2CCOCC2)oc2c(-c3cccc4c3sc3ccccc34)cccc12 + Cc1nc(NC(=O)N2CCC[C@H]2C(N)=O)sc1-c1ccnc(C(C)(C)C(F)(F)F)c1 [Alpelisib] (partner 2 µM)
A) band C
